B1: EHMT1 (parent)
chain: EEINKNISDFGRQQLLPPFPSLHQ

variants of: B1; assay: protein stability index of a GFP-peptide fusion (GPS, HEK-293T) (PSI 1-6); higher = more stable; conditions: c terminus: a fixed tail appended;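 note: lentivirally expressed fusions sorted by FACS into six bins by GFP to DsRed ratio, PSI derived from sequencing read proportions per bin multiplied by bin number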
assay-metric: protein stability index
The response must contain the number and no unit.

See these solved cases before continuing.
>  <sequence>
EEINKNISDFGRQQLLPPFPELHQ

>  <protein stability index>
3.59

$$$$
>  <sequence>
EEINKNIVDFGRQQLLPPFPSLHQ

>  <protein stability index>
3.21

$$$$
>  <sequence>
EEINKNISDFGRQQLLPPFPSYHQ

>  <protein stability index>
2.47

$$$$
>  <sequence>
EEINKNISDFGLQQLLPPFPSLHQ

>  <protein stability index>
2.74

$$$$
>  <sequence>
EEINKQISDFGRQQLLPPFPSLHQ

>  <protein stability index>
2.71

$$$$

[Q] Look up protein stability index: EEINKNISDFGRQQLLPPFPSLRQ
[A] 3.08

[Q] // next record EEINKNISDFGRQQLLPPNPSLHQ
[A] 4.37

[Q] // next record EEINKNISDDGRQQLLPPFPSLHQ
[A] 3.91

[Q] // next record EEINKNISDFKRQQLLPPFPSLHQ
[A] 2.59

[Q] // next record EEINKNISDKGRQQLLPPFPSLHQ
[A] 3.45

[Q] // next record EERNKNISDFGRQQLLPPFPSLHQ
[A] 2.69

[Q] // next record EEMNKNISDFGRQQLLPPFPSLHQ
[A] 2.74
